- Tested on: R5-HIV-1Ba-L
- Assay explanation: MAGI assay using MAGI/CCR5 cells and R5-HIV-1Ba-L
- Format: cell-based
- Condition: Human immunodeficiency virus 1, BAL, Ba-L (MAGI)
Result type: IC90 (nM)

Cc1cccc(C)c1C(=O)N1C2CCC1CC(N1CCN(C(C)c3ccc(C(F)(F)F)cc3)C(C)C1)C2 (centres unmarked) [GRL-10007C] = 9.5
CCCCN1C(=O)[C@@H]([C@H](O)C2CCCCC2)NC(=O)C12CCN(Cc1ccc(Oc3ccc(C(=O)O)cc3)cc1)CC2 [APL] = 4.9
C=CCN(C(=O)OCc1ccc([N+](=O)[O-])cc1)C1CC2CCC(C1)N2CCC(C)(CN(C)S(=O)(=O)c1ccccc1)c1ccccc1 (centres unmarked) [GRL-117C] = 8.9
C=CCN(C(=O)OCC1COC2OCCC12)C1CC2CCC(C1)N2CCC(C)(CN(C)S(=O)(=O)c1ccccc1)c1ccccc1 (centres unmarked) [GRL-10018C] = 27.5
CCO/N=C(\c1ccc(Br)cc1)C1CCN(C2(C)CCN(C(=O)c3c(C)cc[n+]([O-])c3C)CC2)CC1 [SCH-C] = 15.9

* * *

- Tested on: CC1/85 cl.7
- Assay explanation: Anti-HIV-1 assay, drug-naive clinical strain CC1/85 cl.7
- Format: cell-based
- Condition: Human immunodeficiency virus 1
// IC90 lookup, one value per entry
Result type: IC90 (nM)

C=CCN(C(=O)OCc1ccc([N+](=O)[O-])cc1)C1CC2CCC(C1)N2CCC(C)(CN(C)S(=O)(=O)c1ccccc1)c1ccccc1 (centres unmarked) [GRL-117C] = 28.9
C=CCN(C(=O)OCC1COC2OCCC12)C1CC2CCC(C1)N2CCC(C)(CN(C)S(=O)(=O)c1ccccc1)c1ccccc1 (centres unmarked) [GRL-10018C] = 34.9
CCO/N=C(\c1ccc(Br)cc1)C1CCN(C2(C)CCN(C(=O)c3c(C)cc[n+]([O-])c3C)CC2)CC1 [SCH-C] = 67.7
CCCCN1C(=O)[C@@H]([C@H](O)C2CCCCC2)NC(=O)C12CCN(Cc1ccc(Oc3ccc(C(=O)O)cc3)cc1)CC2 [APL] = 11.3
Cc1cccc(C)c1C(=O)N1C2CCC1CC(N1CCN(C(C)c3ccc(C(F)(F)F)cc3)C(C)C1)C2 (centres unmarked) [GRL-10007C] = 80.3

* * *

- System: D1/85.16 cl.23 (VVC resistant)
- Assay explanation: microbe, parasite or virus in culture
- Type: cell-based, HIV-1
- Condition: D1/85.16 cl.23 (VVC resistant)
Result type: IC50

C=CCN(C(=O)OCc1ccc([N+](=O)[O-])cc1)C1CC2CCC(C1)N2CCC(C)(CN(C)S(=O)(=O)c1ccccc1)c1ccccc1 (stereo not shown) [GRL-117C] = 29.8 nM
